Quick reference for protein stability index among some sequences
System: Saccharomyces cerevisiae
Assay method text: protein stability index of tFT-peptide fusion (C-terminal peptide) (PSI (0-1 scale)); higher = more stable (slower turnover)
Condition details: genetic background: wild type; temperature: 30 C
Parameter: protein stability index

{"Ordered residues": "LFPVASLCLART", "Reading": 0.524}
{"Ordered residues": "GWFCLFFVVSTG", "Reading": 0.225}
{"Ordered residues": "RLARRGGGWGPG", "Reading": 0.67}
{"Ordered residues": "VMLIRVSRGIKC", "Reading": 0.29}
{"Ordered residues": "FSVRLCLFVWGC", "Reading": 0.317}
{"Ordered residues": "FGCCLYFCFWGL", "Reading": 0.372}
{"Ordered residues": "VFVFTFSLSFYC", "Reading": 0.274}
{"Ordered residues": "SFFCTRVLWVFQ", "Reading": 0.0846}
{"Ordered residues": "SAWGQAFWCQMG", "Reading": 0.265}

----------
System: Saccharomyces cerevisiae
Assay method text: protein stability index of tFT-peptide fusion (C-terminal peptide) (PSI (0-1 scale)); higher = more stable (slower turnover)
Condition details: genetic background: wild type; temperature: 30 C
Please use rule met whenever protein stability index is not below 0.7, and rule not met whenever it is.

{"Ordered residues": "INKDMTKKKMKF [MFG1 C-terminal 12 aa]", "Qualitative label": "rule not met"}
{"Ordered residues": "IIRDFLIEKGFI [YNL320W C-terminal 12 aa]", "Qualitative label": "rule not met"}
{"Ordered residues": "VKQLEVSSGIKQ [HEM1 C-terminal 12 aa]", "Qualitative label": "rule not met"}
{"Ordered residues": "HPNIDALLKKTE [MST27 C-terminal 12 aa]", "Qualitative label": "rule not met"}
{"Ordered residues": "IEKNHAKFTDLT [CSH1 C-terminal 12 aa]", "Qualitative label": "rule met"}
{"Ordered residues": "NIRIVNGLQNTR [TIM8 C-terminal 12 aa]", "Qualitative label": "rule not met"}
{"Ordered residues": "QGHGPVSPSPTK [PTM1 C-terminal 12 aa]", "Qualitative label": "rule met"}

----------
Tested on: Saccharomyces cerevisiae
Assay method text: protein stability index of tFT-peptide fusion (C-terminal peptide) (PSI (0-1 scale)); higher = more stable (slower turnover)
Condition details: genetic background: wild type; temperature: 30 C
protein stability index values for the sequences below.

{"Ordered residues": "AASPHHPSQTAL", "protein stability index": 0.683}
{"Ordered residues": "HYDTHQTPQTSP", "protein stability index": 0.667}
{"Ordered residues": "PPLPLPGPDHHL", "protein stability index": 0.731}
{"Ordered residues": "TKKNKLRQKKTE", "protein stability index": 0.646}
{"Ordered residues": "VERSEGRLGVVG", "protein stability index": 0.686}
{"Ordered residues": "RGIGIQSVAARN", "protein stability index": 0.723}
{"Ordered residues": "TRLLPQRPLGGV", "protein stability index": 0.717}
{"Ordered residues": "EGGGASELGAPN", "protein stability index": 0.567}
{"Ordered residues": "PLPINAGVRITP", "protein stability index": 0.671}
{"Ordered residues": "PDRLPPPLLPPL", "protein stability index": 0.718}
{"Ordered residues": "GGARVAVCEGGE", "protein stability index": 0.771}
{"Ordered residues": "PPPRPPLPPPLP", "protein stability index": 0.692}
{"Ordered residues": "IFMGSPYPRLPT", "protein stability index": 0.633}
{"Ordered residues": "RPPPPPSPPPPP", "protein stability index": 0.674}
{"Ordered residues": "GGWPREVVGRGG", "protein stability index": 0.671}
{"Ordered residues": "APHPTPYVRRHC", "protein stability index": 0.74}
{"Ordered residues": "APWSVSAGCFLF", "protein stability index": 0.687}
{"Ordered residues": "ECSPRQVPSLAE", "protein stability index": 0.694}
{"Ordered residues": "CVLLRPGFLVLV", "protein stability index": 0.234}
{"Ordered residues": "RSLPSSPTPPED", "protein stability index": 0.755}

----------
Each entry below carries its reported protein stability index.
Tested on: Saccharomyces cerevisiae
Assay method text: protein stability index of tFT-peptide fusion (C-terminal peptide) (PSI (0-1 scale)); higher = more stable (slower turnover)
Condition details: genetic background: wild type; temperature: 30 C

{"Ordered residues": "KVTKAAQKAAKK [YPR080W; YBR118W C-terminal 12 aa]", "protein stability index": 0.696}
{"Ordered residues": "RSHSRKNSLSLL [SPO24 C-terminal 12 aa]", "protein stability index": 0.734}
{"Ordered residues": "LQTMSFLMNHLI [YJL032W C-terminal 12 aa]", "protein stability index": 0.23}
{"Ordered residues": "DLSSFFNYRSVQ [SPH1 C-terminal 12 aa]", "protein stability index": 0.737}
{"Ordered residues": "SNENARNNNPYL [FLC2 C-terminal 12 aa]", "protein stability index": 0.705}
{"Ordered residues": "SWSGDNEAHRWT [NPT1 C-terminal 12 aa]", "protein stability index": 0.686}
{"Ordered residues": "TPQEILQRFQKQ [EAF1 C-terminal 12 aa]", "protein stability index": 0.732}
{"Ordered residues": "ITEVNVSLEEKL [FHL1 C-terminal 12 aa]", "protein stability index": 0.708}

----------
Tested on: Saccharomyces cerevisiae
Assay method text: protein stability index of tFT-peptide fusion (C-terminal peptide) (PSI (0-1 scale)); higher = more stable (slower turnover)
Condition details: genetic background: wild type; temperature: 30 C
Listing: protein stability index of selected sequences

{"Ordered residues": "TSGGSIVLKGSS [YGR068W-A C-terminal 12 aa]", "protein stability index": 0.669}
{"Ordered residues": "LPYRMLIRMYPV [YEL014C C-terminal 12 aa]", "protein stability index": 0.534}
{"Ordered residues": "VQRVILITHLNV [YOL083C-A C-terminal 12 aa]", "protein stability index": 0.616}
{"Ordered residues": "GINAGEIEIPEN [RPL12A C-terminal 12 aa]", "protein stability index": 0.698}
{"Ordered residues": "DHKVGAQVSYKY [MAD2 C-terminal 12 aa]", "protein stability index": 0.675}
{"Ordered residues": "AGTDKSQRCAIM [GIS4 C-terminal 12 aa]", "protein stability index": 0.695}
{"Ordered residues": "SNSSKNRMNNYR [SPT6 C-terminal 12 aa]", "protein stability index": 0.721}
{"Ordered residues": "ANKKARHFNNSA [VAM7 C-terminal 12 aa]", "protein stability index": 0.698}
{"Ordered residues": "ESKKTKGEELTL [ARG1 C-terminal 12 aa]", "protein stability index": 0.669}
{"Ordered residues": "ARNIWRLFLQKI [YLR126C C-terminal 12 aa]", "protein stability index": 0.168}
{"Ordered residues": "KYESATASALVN [RPS13 C-terminal 12 aa]", "protein stability index": 0.702}
{"Ordered residues": "IKALQDSLFKDV [NUP188 C-terminal 12 aa]", "protein stability index": 0.705}
{"Ordered residues": "LSKDGIYTAVPN [PAU23 C-terminal 12 aa]", "protein stability index": 0.702}
{"Ordered residues": "SDHCWDGCWWCR [AQY2 C-terminal 12 aa]", "protein stability index": 0.765}
{"Ordered residues": "MFGVHDKSVIIE [NSE5 C-terminal 12 aa]", "protein stability index": 0.7}
{"Ordered residues": "WVRLPTTSHGLD [SPO73 C-terminal 12 aa]", "protein stability index": 0.733}
{"Ordered residues": "NAKKGSKIEEIE [PTC3 C-terminal 12 aa]", "protein stability index": 0.666}
{"Ordered residues": "SFFLRNFFPSLF [YDL159W-A C-terminal 12 aa]", "protein stability index": 0.246}
{"Ordered residues": "LPLYYVYQCDMI [YDR094W C-terminal 12 aa]", "protein stability index": 0.643}
{"Ordered residues": "EIKKIYQNEKKI [DPC7 C-terminal 12 aa]", "protein stability index": 0.677}
{"Ordered residues": "AEETAVFTLPNV [GGA2 C-terminal 12 aa]", "protein stability index": 0.694}
{"Ordered residues": "DENRHSIRIPFN [USB1 C-terminal 12 aa]", "protein stability index": 0.688}
{"Ordered residues": "EPSLRGHLIFVL [YBR300C C-terminal 12 aa]", "protein stability index": 0.518}
{"Ordered residues": "LPFQKLKHLIKK [MRX11 C-terminal 12 aa]", "protein stability index": 0.706}
{"Ordered residues": "QNEQLQMLSNSV [ATG31 C-terminal 12 aa]", "protein stability index": 0.673}
{"Ordered residues": "PLSYDPLGNLIR [TSR3 C-terminal 12 aa]", "protein stability index": 0.728}
{"Ordered residues": "EGVRNRRKALKK [ARO3 C-terminal 12 aa]", "protein stability index": 0.669}
{"Ordered residues": "MSKLGLIPKDFQ [HIS4 C-terminal 12 aa]", "protein stability index": 0.707}
{"Ordered residues": "EYLQSMKTSINR [SFB2 C-terminal 12 aa]", "protein stability index": 0.695}
{"Ordered residues": "FRRRLGDRFKKD [MRX7 C-terminal 12 aa]", "protein stability index": 0.695}
{"Ordered residues": "TLNVSNISHYSL [GAL80 C-terminal 12 aa]", "protein stability index": 0.704}
{"Ordered residues": "TSNNIFGSDQKY [MNN14 C-terminal 12 aa]", "protein stability index": 0.741}
{"Ordered residues": "WVCQEILKLCKD [NRK1 C-terminal 12 aa]", "protein stability index": 0.713}
{"Ordered residues": "LMILGNFMPILN [ERT1 C-terminal 12 aa]", "protein stability index": 0.565}
{"Ordered residues": "DSTAPKPIPGKE [YKL030W C-terminal 12 aa]", "protein stability index": 0.663}
{"Ordered residues": "SHDMDFNNAGDF [HMS1 C-terminal 12 aa]", "protein stability index": 0.707}
{"Ordered residues": "VEFKYPEEIFHG [TPP1 C-terminal 12 aa]", "protein stability index": 0.678}
{"Ordered residues": "NTEPPEAPAATN [AFG3 C-terminal 12 aa]", "protein stability index": 0.668}
{"Ordered residues": "ADGNPLQALPQL [TOM40 C-terminal 12 aa]", "protein stability index": 0.666}
{"Ordered residues": "QNLDENVWRTPI [SSP1 C-terminal 12 aa]", "protein stability index": 0.672}
{"Ordered residues": "KITVSNLTNQQI [YCL001W-B C-terminal 12 aa]", "protein stability index": 0.684}
{"Ordered residues": "PIDPKAFTFDSR [YCL012C C-terminal 12 aa]", "protein stability index": 0.73}
